meta.source: patent US9296723B2

Biological target: NAMPT (Homo sapiens, UniProt P43490)
Sequence (P43490 whole entry): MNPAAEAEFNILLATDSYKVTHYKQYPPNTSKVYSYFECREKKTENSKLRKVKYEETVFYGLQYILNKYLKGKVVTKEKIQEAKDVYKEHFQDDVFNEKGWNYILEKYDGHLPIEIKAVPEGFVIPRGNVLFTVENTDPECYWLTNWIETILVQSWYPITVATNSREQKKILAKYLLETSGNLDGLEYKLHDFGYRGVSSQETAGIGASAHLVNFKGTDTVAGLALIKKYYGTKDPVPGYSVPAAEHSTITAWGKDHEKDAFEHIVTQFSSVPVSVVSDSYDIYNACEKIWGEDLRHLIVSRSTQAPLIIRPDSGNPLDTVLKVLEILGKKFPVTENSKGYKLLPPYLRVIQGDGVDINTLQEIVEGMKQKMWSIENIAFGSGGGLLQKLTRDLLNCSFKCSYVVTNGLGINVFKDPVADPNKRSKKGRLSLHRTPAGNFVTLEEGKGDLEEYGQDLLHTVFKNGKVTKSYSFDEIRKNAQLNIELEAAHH
Experiment: Time-Resolved Fluorescence Resonance Energy Transfer (TR-FRET) Binding Assay of NAMPT
Conditions: 6.8 nM NAMPT, 200 nM probe, equilibrated 3 hours, no substrates
measured-attribute: pIC50
Scale explanation: pIC50 corresponds to minus log10 of a concentration expressed in moles per litre.

Quick check: pIC50 of O=C(CC(F)(F)F)N1CC(c2ccc(NC(=O)N3CC(c4cccnc4)C3)cc2)C1 [Example 108] ?
6.91

State the recorded pIC50 for this entry: CC1CC1C(=O)N1CCC(c2ccc(NC(=O)N3CC(c4cccnc4)C3)cc2)C1 (centres unmarked) [Example 262]
7.22

What does the record list as pIC50 for CC[C@H](C)C(=O)N1CC=C(c2ccc(NC(=O)N3CC(c4cccnc4)C3)cc2)CC1 [Example 9] ?
7.79

Could you share which pIC50 value was measured for COCC(=O)N1CC(c2ccc(NC(=O)N3CC(c4cccnc4)C3)cc2)C1 [Example 218] ?
6.77

Look up pIC50 for this molecule: CCC(C)CC(=O)N1CCC(c2ccc(NC(=O)N3CC(c4cccnc4)C3)cc2)C1 (centres unmarked) [Example 259]
7.26

Need pIC50, item O=C(Nc1ccc(OC2CN(C(=O)c3cscn3)C2)cc1)N1CC(c2cccnc2)C1 [Example 147]
7.78

Look at this molecule and give its reported pIC50. O=C(CC1CC1)N1CC(c2ccc(NC(=O)N3CC(c4cccnc4)C3)cc2)C1 [Example 105]
7.17

Fill blank: measured pIC50 of the molecule CC(C)CC(=O)N1CC[C@@H](Oc2ccc(NC(=O)N3CC(c4cccnc4)C3)cc2)C1 [Example 333] is ____.
7.25

Please look up its pIC50: O=C(Nc1ccc(C2CCN(C(=O)C3CCCCC3)C2)cc1)N1CC(c2cccnc2)C1 (centres unmarked) [Example 293]
7.25

Endpoint output: pIC50 of CCCCN1CCC(c2ccc(NC(=O)N3CC(c4cccnc4)C3)cc2)CC1 [Example 240] . Value?
6.22

Please give the measured pIC50 for this molecule: CC(C)CC(=O)N1CCC(c2ccc(NC(=O)N3CC(c4cccnc4)C3)cc2)CC1 [Example 174]
7.68

// query pIC50 value for entry Cc1ccc(C(=O)N2CCC(c3ccc(NC(=O)N4CC(c5cccnc5)C4)cc3)C2)s1 (centres unmarked) [Example 283]
7.47

pIC50 for CCOCCC(=O)N1CC[C@@H](Oc2ccc(NC(=O)N3CC(c4cccnc4)C3)cc2)C1 [Example 314] ?
6.96

Give its pIC50 value. Item: CCOCC(=O)N1CCC(c2ccc(NC(=O)N3CC(c4cccnc4)C3)cc2)C1 (centres unmarked) [Example 288]
6.93

// returns reported pIC50 for input CCC(=O)N1CC(Oc2ccc(NC(=O)N3CC(c4cccnc4)C3)cc2)C1 [Example 130]
7.07

// lookup pIC50 for CCC(C)(C)C(=O)N1CC(Oc2ccc(NC(=O)N3CC(c4cccnc4)C3)cc2)C1 [Example 131]
8.11

Given the molecule O=C(Nc1ccc(C2CCN(C(=O)C3CCCC3)C2)cc1)N1CC(c2cccnc2)C1 (centres unmarked) [Example 295] , what is its reported pIC50?
7.29
